Would you kindly list Fold of Change KO/WT for each of these molecules?
Target: Oatp1b2 (Mus musculus, UniProt Q9JJL3)
Assay: Untargeted metabolomics of plasma from untreated wild-type and Oatp1b2(−/−) mice
Details: plasma of untreated Oatp1b2-deficient (KO) vs wild-type (WT) mice; semi-quantitative; positive = higher in KO; n = 6 per group
Give bare numbers.

The cases that follow already have their Fold of Change KO/WT on record.
C[C@H](CCC(=O)O)[C@H]1CC[C@H]2[C@@H]3[C@H](O)[C@H](O)[C@@H]4C[C@H](O)CC[C@]4(C)[C@H]3CC[C@]12C [hyocholate]
5.64
COC1=C(O)[C@@H]([C@@H](O)CO)OC1=O [2-O-methylascorbic acid]
1.16

// below: Fold of Change KO/WT requested for another molecule
Look at this molecule and give its reported Fold of Change KO/WT. C[C@H](CCC(=O)NCCS(=O)(=O)O)[C@H]1CC[C@H]2[C@@H]3CC[C@@H]4C[C@H](O)CC[C@]4(C)[C@H]3C[C@H](O)[C@]12C [taurodeoxycholate]
3.45

====

Target: Oatp1b2 (Mus musculus, UniProt Q9JJL3)
Assay: Untargeted metabolomics of plasma from untreated wild-type and Oatp1b2(−/−) mice
Details: plasma of untreated Oatp1b2-deficient mice; raw area counts rescaled to median = 1
Measured Metric: Mean value KO
Give bare numbers.

# count of solved cases: 4
C[N+](C)(C)CCOP(=O)([O-])OC[C@H](O)CO
1.12
CC(=O)Nc1ccn([C@@H]2O[C@H](CO)[C@@H](O)[C@H]2O)c(=O)n1
1.12
CCCCC/C=C\C/C=C\C/C=C\C/C=C\CCCC(=O)OC[C@@H](O)COP(=O)(O)O
1.17
O=C(O)CCc1ccccc1.O=C(O)CCc1ccccc1 [3-phenylpropionate (hydrocinnamate)]
1.39

I would be grateful if you could provide Mean value KO for each of the following entries.
1. O=C(O)CCCCCCCCC(O)CC(=O)O (stereo not shown) [3-hydroxydodecanedioate]
2. C=CC1=C(C)/C(=C/c2[nH]c(Cc3[nH]c(/C=C4\NC(=O)C(C)=C4C=C)c(C)c3CCC(=O)O)c(CCC(=O)O)c2C)NC1=O [bilirubin (Z,Z)]
3. CCCCCCCCCCCCCCCC(N)=O [palmitamide (16:0)]

1: 1.64; 2: 1.48; 3: 1.18

====

Molecular target: Oatp1b2 (Mus musculus)
Sequence (Q9JJL3 1-689): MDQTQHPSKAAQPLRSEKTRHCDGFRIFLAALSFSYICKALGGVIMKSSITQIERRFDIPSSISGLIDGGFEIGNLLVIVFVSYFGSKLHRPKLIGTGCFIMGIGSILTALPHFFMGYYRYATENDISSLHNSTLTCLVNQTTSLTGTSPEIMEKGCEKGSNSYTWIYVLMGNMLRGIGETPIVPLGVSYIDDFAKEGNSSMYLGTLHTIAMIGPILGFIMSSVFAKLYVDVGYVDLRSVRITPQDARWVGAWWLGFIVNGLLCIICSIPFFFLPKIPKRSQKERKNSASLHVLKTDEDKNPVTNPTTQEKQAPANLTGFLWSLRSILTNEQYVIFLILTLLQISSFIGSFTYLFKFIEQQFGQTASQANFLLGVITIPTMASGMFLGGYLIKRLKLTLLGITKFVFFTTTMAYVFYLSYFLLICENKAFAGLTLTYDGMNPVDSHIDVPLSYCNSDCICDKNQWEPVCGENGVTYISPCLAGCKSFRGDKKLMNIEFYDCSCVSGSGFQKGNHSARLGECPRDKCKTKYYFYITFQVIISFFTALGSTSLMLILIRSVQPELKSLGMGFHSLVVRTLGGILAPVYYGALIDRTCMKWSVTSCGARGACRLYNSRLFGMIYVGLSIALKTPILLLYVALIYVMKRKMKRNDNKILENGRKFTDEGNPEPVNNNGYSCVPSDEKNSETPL
Experiment: Untargeted metabolomics of plasma from untreated wild-type and Oatp1b2(−/−) mice
Conditions: plasma of untreated Oatp1b2-deficient mice; raw area counts rescaled to median = 1
Counter-ions that a name gives are not always drawn.
Measured Metric: Mean value KO
Answers are plain numbers.

The following molecules have reported results that may help.
O=C(O)[C@H]1O[C@@H](Oc2ccccc2)[C@H](O)[C@@H](O)[C@@H]1O [phenol glucuronide]
1.28
CCCCC/C=C\C/C=C\C/C=C\C/C=C\CCCC(=O)OC[C@@H](O)COP(=O)(O)OC1C(O)C(O)C(O)C(O)C1O (some centres unmarked) [1-arachidonoyl-GPI (20:4)]
1.11
Cc1ncc(CO)c(CN)c1O [pyridoxamine]
1.42
CCCCCCCCCCCCCCCC(=O)OC[C@@H](O)COP(=O)([O-])OCC[N+](C)(C)C [1-palmitoyl-GPC (16:0)]
1.12
C/C=C(\C)C(=O)NCC(=O)O [tigloylglycine]
1.22

Parameter requested: Mean value KO. Apply to each item below.
1. O=S(=O)(O)Oc1ccccc1 [phenol sulfate]
2. CCCCCC/C=C\CCCCCCCC(=O)OC[C@@H](O)COP(=O)([O-])OCC[N+](C)(C)C [1-palmitoleoyl-GPC (16:1)]
3. C[C@H](CCC(=O)O)[C@H]1CC[C@H]2[C@@H]3C[C@H](O)[C@@H]4C[C@@H](O)CC[C@]4(C)[C@H]3CC[C@]12C [isohyodeoxycholate]
4. COP(=O)(O)O [methylphosphate]
5. O=C(O)CCCCCCCCCCCCCCCC(=O)O [heptadecanedioate (C17-DC)]
6. O=C(O)CCCCCCCCCCCCCCCCC(=O)O [octadecanedioate (C18-DC)]

1. 1.23
2. 1.31
3. 0.940
4. 1.08
5. 1.36
6. 1.27

I would be grateful if you could provide Mean value KO for each of the following entries.
1. N[C@@H](CCC(=O)NCC(=O)O)C(=O)O [gamma-glutamylglycine]
2. O=C1Cc2ccccc2N1 [indolin-2-one]
3. CSC=CC(O)C(O)C(=O)O (centres unmarked)
4. CCCCC(=O)NCC(=O)O [valerylglycine]

[1.17, 1.20, 1.23, 1.28]

For each of the items listed, what is its Mean value KO?
1. CCCCC/C=C\C/C=C\CCCCCCCC(=O)O[C@H](CO/C=C\CCCCCCCCCCCCCC)COP(=O)(O)OCCN
2. CCCCCCCC/C=C\CCCCCCCC(=O)O[C@H](COC(=O)CCCCCCCCCCCCCCC)COP(=O)(O)OCCN [1-palmitoyl-2-oleoyl-GPE (16:0/18:1)]
3. O=C(O)CNC(=O)/C=C/c1ccccc1 [cinnamoylglycine]

1: 1.16; 2: 1.24; 3: 1.54

I have 2 molecules here; please give me Mean value KO for each one.
1. CCCCCCCC/C=C\CCCCCC/C=C\OC[C@@H](O)COP(=O)(O)OCCN [1-(1-enyl-oleoyl)-GPE (P-18:1)]
2. CCCCCCCCCCCCCC/C=C\OC[C@H](COP(=O)([O-])OCC[N+](C)(C)C)OC(=O)CCCCCCCCCCCCCCC

1.45
1.14
